tested on: OVCAR-4 ovarian; experiment: NCI tumour cell line growth inhibition, 48 h
experimentalEndpoint: GI50

# input May I ask what GI50 has been recorded for N#Cc1c(-c2ccccc2)nc(SCC2CO2)nc1N1CCOCC1 (stereo unspecified) ?
# output 52.7 µM

# input Item: FC(F)(F)Oc1cccc(-c2cnc3ccc(-c4ccncc4)nn23)c1
# output 1.4 µM

# input Item: COc1cc(C(=O)/C=C/c2c(C)n([O-])c3ccc(C)cc3[n+]2=O)cc(OC)c1OC
# output 6.68 µM

# input Item: Cc1ccc([N+](=O)[O-])cc1NC(=O)Nc1cccc(F)c1
# output 3.96 µM

# input Item: CCS(=O)(=O)N1CCC(C(C)n2c(C)c(C(=O)NCc3c(OC)cc(C)[nH]c3=O)c3ccccc32)CC1 (stereo unspecified)
# output > 100 µM

# input Item: COc1cc2c3c(n(CCCN)c(=O)c2cc1OC)-c1ccccc1C3=O
# output 2.29 µM

# input Item: CCCCON(OC(=O)c1ccccc1)C(=O)c1ccccc1
# output > 100 µM

# input Item: CCSCC1CC(O)(c2ccccc2)C(c2ccccc2)C(c2ccc(Cl)cc2)O1 (stereo unspecified)
# output 1.66 µM

# input Item: Cn1cc(-c2ccc3c(Nc4cccc(NC(=O)Nc5cccc(F)c5)c4)ncnc3c2)cn1
# output 1.85 µM

# input Item: C/C(=N\NC(=O)c1sc(=S)n(C)c1N)c1cc2ccccc2o1
# output 17.9 µM

# input Item: Nc1c(C(=O)c2cccc(CCCN3CCOCC3)c2)cnn1-c1ccc(F)cc1
# output > 25 µM

# input Item: CCCCC[C@H](O)/C=C/[C@@H]1[C@@H](C/C=C\CCCC(=O)O)[C@@H](O)C[C@H]1O
# output > 100 µM

# input Item: COc1ccc2oc(=O)cc(C(c3ccc[nH]3)c3ccc[nH]3)c2c1
# output 0.303 µM

# input Item: O=C1C(Cl)=C(Nc2cccc(Cl)c2)C(=O)N1Cc1ccccc1
# output 22.3 µM

# input Item: CC(C)[C@]12O[C@H]1[C@@H]1O[C@]13[C@]1(O[C@H]1C[C@H]1C4=C(CC[C@@]13C)C(=O)OC4)[C@@H]2O
# output 0.0174 µM

# input Item: CCNC(=O)[C@@H]1CCCN2C(=O)CC[C@H](NC(=O)[C@H](Cc3ccc(OP(=O)(O)O)cc3)NC(C)=O)C(=O)N12
# output > 25 µM

====

tested on: SNB-75 CNS; experiment: NCI tumour cell line growth inhibition, 48 h
Please provide measured TGI for the entries that follow.
# value in µM; strip the unit string

# input Provide the documented TGI with SNB-75 CNS as the system for COc1ccc(Oc2cccc(/C=C3/C(=O)Nc4ccccc43)c2)cc1
# output 28.3

# input Item: O=c1c2cc(-c3ccccc3)sc2nc2n1N=C(c1ccccc1)CS2
# output 89.1

# input Item: OC(c1cccc(-n2ccc(C(F)(F)F)n2)c1)c1cnccc1NC1CCCCCC1 (stereo not given)
# output 2.67

# input Item: O=C(Nc1cccc(-n2ccc3c(NC(=O)c4ccccc4)nccc32)c1)c1ccc(N2CCOCC2)c(C(F)(F)F)c1
# output 25.9

# input Item: FC(F)(F)Oc1cccc(-c2cnc3ccc(-c4ccncc4)nn23)c1
# output 5.14

# input Item: C/C=C/[C@H]1O[C@@](O)([C@@H](C)[C@H](O)[C@H](C)[C@H]2OC(=O)/C(OC)=C/C(C)=C/[C@@H](C)[C@@H](O)[C@@H](CC)[C@@H](O)[C@H](C)C/C(C)=C/C=C/[C@@H]2OC)C[C@H](OC2CC(O)C(O)C(C)O2)[C@@H]1C (stereo not given in full)
# output 46

# input Item: COc1cccc(C2c3cc4c(cc3OC(C)(N3CCCC3)C2C)OCO4)c1OC (stereo not given)
# output 94.3

# input Item: COC(=O)[C@@]12C(=O)C=CC(=O)[C@@H]1C1C(=CC2COC(C)=O)O[C@@H]2OC3(CCCCC3)O[C@H]12 (stereo not given in full)
# output 26.4

# input Item: CCC(C#N)(c1ccccc1)N(CCc1ccccc1)C(=O)c1ccccc1 (stereo not given)
# output 78.7

====

system: U251 CNS; assay: NCI tumour cell line growth inhibition, 48 h
Where a SMILES comes first, the peptide text is derived from it. The star is where a group is joined. Boc = CC(C)(C)OC(=O)*; Bz = O=C(c1ccccc1)*
Please provide measured TGI for the entries that follow.
# value in µM; strip the unit string

# input May I ask what TGI has been recorded for CC(NC(=O)C(Cc1ccc(OC(=O)c2ccccc2)cc1)NC(=O)OC(C)(C)C)C(=O)NC(Cc1ccccc1)C(=O)NCC(N)=O (stereo not given) (Boc-Y(Bz)AFG-NH2; configuration not given here) ?
# output 35.1

# input Item: O=C(/C=C1\N=C(c2ccccc2)N(c2nc3ccc(Sc4ccccc4)cc3[nH]2)C1=O)/C=C/c1ccccc1
# output 81.3

# input Item: O=c1c2cc(-c3ccccc3)sc2nc2n1N=C(c1ccccc1)CS2
# output 48.4

# input Item: Cc1ccc(-c2nc(C)c(C(=O)Nc3ccc(Cl)cc3)s2)cc1
# output 48.8

# input Item: COc1ccc(/C=C2\CCCC(CN(C)C)C2=O)cc1 (stereo not given)
# output 3.88

====

system: KM12 colon; test: NCI tumour cell line growth inhibition, 48 h
experimentalEndpoint: TGI

# input Provide the documented TGI with KM12 colon as the system for C=C(C)C(=O)O[C@H]1C/C(CO)=C/CCC(=C)C(OC(C)=O)[C@H]2OC(=O)C(=C)[C@H]12 (stereo partly specified)
# output 33.3 µM

# input Item: CCCCON(OC(=O)c1ccccc1)C(=O)c1ccccc1
# output > 100 µM

# input Item: CN(C)c1ccc2c(=O)c3ccccc3oc2n1
# output > 100 µM

# input Item: O=C(Nc1ccc(Cl)cc1Cl)C1C(=O)N(c2ccc(Cl)cc2Cl)C(=O)/C1=N\Nc1ccc([N+](=O)[O-])cc1[N+](=O)[O-] (stereo unspecified)
# output > 100 µM

# input Item: OC1[C@H]([C@H]2CCCC[C@@H]2O)CCC[C@@H]1[C@@H]1CCCC[C@H]1O (stereo partly specified)
# output > 100 µM

# input Item: Cc1ccc(S(=O)(=O)N[C@H](C(=O)O)c2ccccc2)cc1
# output > 100 µM

====

system: SF-295 CNS; assay: NCI tumour cell line growth inhibition, 48 h
Please provide measured TGI for the entries that follow.
# value in µM; strip the unit string

# input May I ask what TGI has been recorded for CS/C(=N\C(=S)N(C)C)N(c1ccccc1)c1nc(=[N+](C)C)ss1 ?
# output 57.4

# input Item: COc1ccc2oc(=O)cc(C(c3ccc[nH]3)c3ccc[nH]3)c2c1
# output 0.214

# input Item: OC(c1cccc(-n2ccc(C(F)(F)F)n2)c1)c1cnccc1NC1CCCCCC1 (stereo not given)
# output 3.2

# input Item: CC12CCC3C(CCC4Cc5[nH]c6ccccc6c5CC43C)C1CCC2O (stereo not given)
# output 3.26

# input Item: Cc1c(N2CCCC2)cc2c(c1NC(=O)c1ccccc1Cl)C(C)(C)CC2(C)C
# output 26.8

# input Item: CN(C)c1ccc(/C=c2/c3ccccc3n3c2c2ccccc2[n+]3C)cc1
# output 13.1

====

Please provide measured TGI for the entries that follow.
tested on: SK-OV-3 ovarian; assay: NCI tumour cell line growth inhibition, 48 h

# input May I ask what TGI has been recorded for COC(=O)CCC(=O)C(=O)OC ?
# output 62000 µM

# input Item: C=CCN1CCC(OC(=O)C(O)(C#CC)C2CCCC2)CC1 (centres undefined)
# output > 100 µM

# input Item: Cc1ccc(C2=Nc3cc(C)c(Cl)cc3S(=O)(=O)NN2)cc1
# output > 100 µM

# input Item: CN(C)c1ccc2c(=O)c3ccccc3oc2n1
# output > 100 µM

# input Item: C/C=C/[C@H]1O[C@@](O)([C@@H](C)[C@H](O)[C@H](C)[C@H]2OC(=O)/C(OC)=C/C(C)=C/[C@@H](C)[C@@H](O)[C@@H](CC)[C@@H](O)[C@H](C)C/C(C)=C/C=C/[C@@H]2OC)C[C@H](OC2CC(O)C(O)C(C)O2)[C@@H]1C (some centres undefined)
# output 16.9 µM

# input Item: COc1cc(NS(C)(=O)=O)ccc1Nc1c2ccc([N+](=O)[O-])cc2nc2c(C)cccc12
# output 11.5 µM

# input Item: Cc1cccc(NC(=O)CCc2ccc(N3C(N)=NC(N)=NC3(C)C)cc2)c1
# output > 100 µM

# input Item: COc1ccc(Oc2cccc(/C=C3/C(=O)Nc4ccccc43)c2)cc1
# output 31 µM

# input Item: CCOC(=O)c1cnn2c1ncc1c(=O)n(NC(N)=O)ccc12
# output > 100 µM

# input Item: CC(=O)N[C@@H](Cc1ccc(OP(=O)(O)O)cc1)C(=O)N[C@H]1CCC(=O)N2CCC[C@@H](C(=O)NCc3ccc(Cl)cc3)N2C1=O
# output > 25 µM

# input Item: CN(C)c1ccc(/C=c2/c3ccccc3n3c2c2ccccc2[n+]3C)cc1
# output 14 µM

# input Item: CC[C@@]1(N(C)C)C(=O)OCc2c1cc1n(c2=O)Cc2cc3ccccc3nc2-1
# output 51.5 µM

# input Item: Cc1ccc([N+](=O)[O-])cc1NC(=O)Nc1cccc(F)c1
# output 49.4 µM

# input Item: CCNC(=O)[C@@H]1CCCN2C(=O)CC[C@H](NC(=O)[C@H](Cc3ccc(OP(=O)(O)O)cc3)NC(C)=O)C(=O)N12
# output > 25 µM

# input Item: Cc1ccc(-c2nc(C)c(C(=O)Nc3ccc(Cl)cc3)s2)cc1
# output 45.2 µM

# input Item: C=CCn1c(=O)c2ccccc2[n+]2c(C)c(C(=O)OCC)sc12
# output > 100 µM

# input Item: O=C(NC1CCN(Cc2ccccc2)CC1)c1cc(-c2ccncc2)nc2ccc(Cl)cc12
# output > 100 µM

# input Item: FC(F)(F)Oc1cccc(-c2cnc3ccc(-c4ccncc4)nn23)c1
# output 2.11 µM

# input Item: CC(C)(C)OC1=C(OC(C)(C)C)C(O)(c2ccccc2)C1=O (centres undefined)
# output > 100 µM

All figures here come from PubChem BioAssay (NCI).
